assayProtocol: Half life in Beagle dog at 0.1 mg/kg, iv and 1 mg/kg, po
Type: ADME, organism-based, Canis lupus familiaris
experimentalConditions: in vivo

smilesStr	unitName	half-life
CN(C)C(=N)c1ccc(C(=O)Nc2ccc(Cl)cc2C(=O)Nc2ccc(Cl)cn2)cc1	h	15.3
CN(C)C(=N)c1ccc(C(=O)Nc2ccc(Cl)cc2C(=O)Nc2ccc(Cl)cn2)c(F)c1	h	13.1

====

assayProtocol: Volume of distribution in Beagle dog at 0.1 mg/kg, iv and 1 mg/kg, po
Format: ADME, organism-based, Canis lupus familiaris
experimentalConditions: in vivo
Each entry below carries its recorded Vd.
metricName: Vd (L/kg)

smilesStr	unitName	quantitativeResult
CN(C)C(=N)c1ccc(C(=O)Nc2ccc(Cl)cc2C(=O)Nc2ccc(Cl)cn2)c(F)c1	L/kg	35.1
CN(C)C(=N)c1ccc(C(=O)Nc2ccc(Cl)cc2C(=O)Nc2ccc(Cl)cn2)cc1	L/kg	45.7
